Measured metric: melting point

Per the records, this compound ( CCOc1ccc(C(=O)O)cc1[N+](=O)[O-] ) has melting point equal to 201 to 203 °C

Per the records, this compound ( CS(=O)(=O)NCC#N ) has melting point equal to 69 to 71 °C

Per the records, this compound ( CC(C)C(Br)C(N)=O (stereo not drawn) ) has melting point equal to 131 to 133 °C

Per the records, this compound ( CCCN(C(=O)c1ccccc1N)C(C)C ) has melting point equal to 64 to 66 °C

Per the records, this compound ( COc1cc(NC(C)=O)c(C(=O)O)cc1OC ) has melting point equal to 229 to 231 °C

Per the records, this compound ( Cc1ccn(-c2cc(CO)ccn2)n1 ) has melting point equal to 92 to 94 °C

Per the records, this compound ( CCOC(=O)Cc1csc(NC(=O)OCC(F)(F)F)n1 ) has melting point equal to 120 to 122 °C

Per the records, this compound ( Nc1ccc(C(=O)NC2CC2)c(Cl)c1 ) has melting point equal to 158 to 160 °C

For each listed entry, give its melting point.
1. COc1ccccc1-n1cc(S(N)(=O)=O)cn1
2. CC1(C(=O)O)CCCc2ccccc21 (stereo not drawn)
3. CCN(C(C)=O)C(C(=O)O)c1ccc(F)c(F)c1 (stereo not drawn)

1: 143 to 145 °C; 2: 113 to 115 °C; 3: 205 to 207 °C

For each listed entry, give its melting point.
1. Cc1cc(O)nc(C(C)(C)C)n1
2. N#Cc1cccc(NCc2ccc(Cl)cc2)c1
3. Clc1nc(-c2ccccc2)nc2scc(-c3ccccc3)c12
4. Cn1c(-c2cccc(O)c2)nc2ccccc21
5. CCOC(=O)c1cc2cc(C(=O)O)ccc2[nH]1
6. Cc1cc(S(=O)(=O)Cl)ccc1OC(C)C
7. Cc1c(C(=O)O)sc2nnc(S)n12

177 to 179 °C
84 to 86 °C
147 to 149 °C
174 to 176 °C
247 to 249 °C
50 to 52 °C
275 to 277 °C

For each listed entry, give its melting point.
1. Cc1ccc(-n2nc(C(=O)O)c3ccccc3c2=O)cc1Cl
2. O=C(CC(F)(F)F)c1ccc(F)cc1F
3. O=C(O)c1ccc(O)cc1F
4. CCCS(N)(=O)=O

["227 to 229 °C", "46 to 48 °C", "202 to 204 °C", "47 to 49 °C"]

Per the records, this compound ( COc1cc(C(=O)O)cc(Cl)c1OC(C)C ) has melting point equal to 156 to 158 °C

----------
Please provide measured melting point for the entries that follow.

Solved entries:
Per the records, this compound ( O=C(O)CSC(=Cc1ccco1)c1nc2ccccc2s1 ) has melting point equal to 133 to 135 °C

Per the records, this compound ( NC(=S)NCCc1cccs1 ) has melting point equal to 127 to 129 °C

For each listed entry, give its melting point.
1. CC(N)c1ccc(-c2cccnc2)cc1 (stereo not given)
2. O=C(O)c1ccnc2ncnn12
3. OCC#Cc1ccc(Cl)cc1
4. CCCCc1ccc(C(=O)Nc2sccc2C(=O)O)cc1

["47 to 49 °C", "259 to 261 °C", "76 to 78 °C", "183 to 185 °C"]

For each listed entry, give its melting point.
1. O=C(O)C1(c2ccc(Br)cc2)CCOCC1
2. NC(=O)NCc1ccc(S(N)(=O)=O)cc1
3. O=C(O)CCNS(=O)(=O)c1ccc(OC(F)(F)F)cc1
4. COC(=O)c1sc(S(=O)(=O)Cl)c(C(=O)OC)c1C
5. CC(C)(C)NS(=O)(=O)c1ccc(Cl)c([N+](=O)[O-])c1
6. O=C(O)c1cn(C2CCCCC2)nn1
7. O=S(=O)(Cl)c1ccc(Cl)c2ccccc12

1. 195 to 197 °C
2. 175 to 177 °C
3. 150 to 152 °C
4. 88 to 92 °C
5. 88 to 90 °C
6. 163 to 165 °C
7. 90 to 92 °C

For each listed entry, give its melting point.
1. Cc1c(N)cc(C(N)=O)cc1F
2. O=C(O)c1ccc(F)c(COCc2ccccc2)c1
3. CN(C(=O)c1ccc(Br)o1)c1ccccc1C(=O)O
4. CN1CCN(c2ccc(F)cc2N)CC1
5. Cc1cc(C)n2nc(C(=O)O)nc2n1
6. CC(C)C(=O)Nc1cc2ccccc2cc1C(=O)O
7. CC(CC(=O)O)c1ccccc1C(F)(F)F (stereo not given)

1: 188 to 190 °C; 2: 95 to 97 °C; 3: 167 to 169 °C; 4: 126 to 128 °C; 5: 178 to 180 °C; 6: 203 to 205 °C; 7: 76 to 78 °C

----------
Please provide measured melting point for the entries that follow.

Per the records, this compound ( Cc1[nH]c(=O)c(C(=O)O)cc1-c1ccccc1 ) has melting point equal to 258 to 260 °C

Per the records, this compound ( CCC(=O)c1ccc(OCC(=O)O)cc1 ) has melting point equal to 131 to 133 °C

Per the records, this compound ( O=C(O)c1cccn2c(I)cnc12 ) has melting point equal to 237 to 239 °C

Per the records, this compound ( Cc1oc2nc(CCl)nc(N)c2c1C ) has melting point equal to 179 to 181 °C

Per the records, this compound ( CCN1C(=O)NC(C)C1=O (configuration not stated) ) has melting point equal to 51 to 53 °C

Per the records, this compound ( O=C(Nc1cc(Cl)ccc1Cl)OCC(F)(F)F ) has melting point equal to 110 to 112 °C

Per the records, this compound ( NNC(=O)CNc1ccc(F)cc1 ) has melting point equal to 80 to 83 °C

Per the records, this compound ( O=C(O)c1cnc2ccccc2c1SC1CCCC1 ) has melting point equal to 111 to 113 °C

Per the records, this compound ( CC(=O)CC(=O)Nc1ccccc1C(F)(F)F ) has melting point equal to 60 to 62 °C

Per the records, this compound ( O=S(=O)(c1ccc2c(c1)CCCN2)N1CCCCC1 ) has melting point equal to 121 to 123 °C

For each listed entry, give its melting point.
1. CN(C)C1CCN(c2ccc(N)cc2F)CC1
2. Cc1sc2[nH]c(-c3ccc(Cl)nc3)nc(=N)c2c1C

124 to 126 °C
133 to 135 °C

----------
Please provide measured melting point for the entries that follow.

Solved entries:
Per the records, this compound ( O=C(O)C1CCCCC1c1nc2ccccc2s1 (centres undefined) ) has melting point equal to 168 to 170 °C

Per the records, this compound ( COCCn1cc(C(=O)O)c2ccccc21 ) has melting point equal to 123 to 125 °C

Per the records, this compound ( CC(C(=O)O)c1ccc(Br)cc1 (centres undefined) ) has melting point equal to 54 to 56 °C

Per the records, this compound ( COC(=O)c1cnc(N)nc1 ) has melting point equal to 209 to 211 °C

Per the records, this compound ( CCOC(=O)Cc1ncccc1C(=O)O ) has melting point equal to 128 to 130 °C

For each listed entry, give its melting point.
1. CC1CN(S(=O)(=O)c2ccc(C(=O)O)cc2)CC(C)O1 (centres undefined)
2. NC(=O)CCc1ccc(C(=O)CCl)cc1
3. O=C(O)C1CCc2nnc(C(F)F)n2C1 (centres undefined)
4. COc1ccc(OCc2cc(C(=O)O)c(C)o2)cc1

1: 268 to 270 °C; 2: 139 to 141 °C; 3: 215 to 217 °C; 4: 123 to 133 °C

For each listed entry, give its melting point.
1. O=C(O)CSc1nc(-c2ccccc2)no1
2. N#Cc1cnn(-c2cccc(Cl)c2)c1
3. O=C(O)c1cc([N+](=O)[O-])cn1Cc1sccc1Br
4. Cc1cc2ncn(C(C)c3ccccc3)c2cc1C (centres undefined)

["115 to 117 °C", "139 to 141 °C", "190 to 192 °C", "169 to 171 °C"]

For each listed entry, give its melting point.
1. Brc1ccc(NCc2ccccn2)cc1
2. OC(c1c(F)cncc1Br)C1CCCCC1 (centres undefined)
3. CCc1ccc2nc(N)sc2c1
4. O=C(O)C1CCCN1S(=O)(=O)c1cccc([N+](=O)[O-])c1 (centres undefined)
5. Cc1ccsc1C1CC1C(=O)O (centres undefined)

76 to 78 °C
76 to 78 °C
105 to 107 °C
182 to 184 °C
58 to 60 °C

For each listed entry, give its melting point.
1. O=Cc1ccc(-c2ccc(C(=O)O)cc2)o1
2. O=C1CCN(c2ccccc2)C1
3. NC(=O)c1ccc(Cl)nn1
4. COC(=O)c1sc2cccc(F)c2c1CBr
5. OC1CCCCc2ccccc21 (centres undefined)

1. 313 to 315 °C
2. 94 to 96 °C
3. 239 to 241 °C
4. 157 to 159 °C
5. 101 to 103 °C
